For each record, write down the corresponding growth AUC.
- Tested on: Clostridium difficile
- protocol-details: growth AUC relative to DMSO control (median of replicates) (fraction); higher = more growth (less inhibition), active = hit call of the paper
- experimental-context: 20 µM; 24 h
// return a plain number; no unit text

Enquiry: What value of growth AUC has been reported for the following compound? CCCCCCCC(=O)Oc1c(I)cc(C#N)cc1I
Return: 0.998

Enquiry: What value of growth AUC has been reported for the following compound? CCS(=O)(=O)CCSP(=O)(OC)OC
Return: 0.975

Enquiry: What value of growth AUC has been reported for the following compound? COC(C)(C)CCCC(C)C/C=C/C(C)=C/C(=O)OC(C)C (centres undefined)
Return: 1.02

Enquiry: What value of growth AUC has been reported for the following compound? CCOCN(C(=O)CCl)c1c(C)cccc1CC
Return: 0.983
